# subject.of.test: WT/R232 STING protein (Homo sapiens, UniProt Q86WV6, H232R)
# Sequence (Q86WV6 whole entry H232R): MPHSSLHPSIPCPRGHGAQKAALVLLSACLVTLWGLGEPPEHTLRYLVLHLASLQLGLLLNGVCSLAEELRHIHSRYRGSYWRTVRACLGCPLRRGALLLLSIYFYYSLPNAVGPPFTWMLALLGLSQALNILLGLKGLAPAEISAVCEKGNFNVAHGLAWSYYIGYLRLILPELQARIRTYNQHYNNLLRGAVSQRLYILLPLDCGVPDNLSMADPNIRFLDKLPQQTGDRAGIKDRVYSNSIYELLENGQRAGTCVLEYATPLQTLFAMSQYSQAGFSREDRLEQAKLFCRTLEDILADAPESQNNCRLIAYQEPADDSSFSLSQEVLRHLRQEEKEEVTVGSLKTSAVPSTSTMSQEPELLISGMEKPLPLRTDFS
# measurement.description: Luciferase reporter assay in HEK293T-hSTING-Luciferase cells, WT/R232
# assay.conditions: 20 hr stimulation, read-out: R232 Activity (EC50 range)
Assignment: determine reported EC50 for the given compounds.

Enquiry: Data request, read-out EC50, for C[C@H]1Oc2ccc(C(=O)NCc3c(F)cc(F)cc3F)cc2N(Cc2cc(F)cc(F)c2)C1=O [Example 242]
Return: < 1 µM

Enquiry: Data request, read-out EC50, for O=C(NCc1ccco1)c1ccc2c(c1)N(Cc1ccccc1F)C(=O)CS2
Return: > 10 µM

Enquiry: Data request, read-out EC50, for O=C(NCC1CCCCC1)c1ccc2c(c1)N(C(=O)c1c(F)cccc1Cl)CCS2
Return: 1 to 10 µM

Enquiry: Data request, read-out EC50, for Cc1noc(CNC(=O)c2ccc3c(c2)N(Cc2ccccc2)C(=O)CS3)n1
Return: 1 to 10 µM

Enquiry: Data request, read-out EC50, for O=C(NCC12C[C@H]3C[C@@H](C1)C[C@@H](C2)C3)c1ccc2c(c1)N(Cc1ccccc1F)C(=O)CS2
Return: > 10 µM

Enquiry: Data request, read-out EC50, for CN(C)C1Sc2ccc(C(=O)NCc3ccco3)cc2N(Cc2ccccc2F)C1=O (stereo not shown)
Return: > 10 µM

Enquiry: Data request, read-out EC50, for O=C(NCc1ccco1)c1ccc2c(c1)N(Cc1c(F)cccc1Cl)C(=O)CC2
Return: > 10 µM

Enquiry: Data request, read-out EC50, for CC1Sc2ncc(C(=O)NCc3ccccc3)cc2N(Cc2c(F)cccc2Cl)C1=O (stereo not shown)
Return: 1 to 10 µM

Enquiry: Data request, read-out EC50, for O=C(NCc1ccco1)c1ccc2c(c1)N(Cc1ccc(F)cc1)C(=O)CS2
Return: 1 to 10 µM

Enquiry: Data request, read-out EC50, for CC1Sc2ncc(C(=O)NCc3cc4ccccc4o3)cc2N(Cc2cc(F)cc(F)c2)C1=O (stereo not shown) [Example 208]
Return: > 10 µM

---

# subject.of.test: hSTING(H232) (Homo sapiens, UniProt Q86WV6)
# Sequence (Q86WV6 whole entry): as the sequence (Q86WV6 whole entry H232R) above, with R232H counted along it
# measurement.description: Luciferase reporter assay in HEK293T-hSTING-Luciferase cells, H232 polymorph
# assay.conditions: 20 hr stimulation, read-out: H232 activity (EC50 range)
Assignment: determine reported EC50 for the given compounds.

Enquiry: Data request, read-out EC50, for Cc1ccc(CNC(=O)c2ccc3c(c2)N(Cc2cc(F)cc(F)c2)C(=O)C(C)S3)o1 (stereo not drawn) [Example 152]
Return: > 10 µM

Enquiry: Data request, read-out EC50, for C[C@@H]1Oc2ccc(C(=O)NCc3cc4ccccc4o3)cc2N(Cc2cc(F)cc(F)c2)C1=O [Example 235]
Return: 1 to 10 µM

Enquiry: Data request, read-out EC50, for C[C@@H]1Oc2ccc(C(=O)NCc3c(F)cc(F)cc3F)cc2N(Cc2cc(F)cc(F)c2)C1=O [Example 243]
Return: < 1 µM

Enquiry: Data request, read-out EC50, for CC1Oc2ccc(C(=O)NCc3c(F)cc(F)cc3F)cc2N(Cc2cc(F)cc(F)c2)C1=O (stereo not drawn) [Example 232]
Return: 1 to 10 µM

Enquiry: Data request, read-out EC50, for O=C(NCc1ccc(F)cc1F)c1ccc2c(c1)N(Cc1c(F)cccc1Cl)C(=O)CS2 [Example 34]
Return: < 1 µM

Enquiry: Data request, read-out EC50, for CC1Cc2ccc(C(=O)NCc3c(F)cc(F)cc3F)cc2N(Cc2cc(F)cc(F)c2)S1(=O)=O (stereo not drawn) [Example 285]
Return: 1 to 10 µM

---

# subject.of.test: WT/R232 STING protein (Homo sapiens, UniProt Q86WV6, H232R)
# measurement.description: Luciferase reporter assay in HEK293T-hSTING-Luciferase cells, WT/R232
# assay.conditions: 20 hr stimulation, read-out: R232 Activity (EC50 range)
value.kind: EC50

Enquiry: Data request, read-out EC50, for O=C(NCc1cc2cccnc2o1)c1ccc2c(c1)N(Cc1cc(F)cc(F)c1)C(=O)CC2
Return: > 10 µM

Enquiry: Data request, read-out EC50, for O=C(NCc1ccco1)c1cc2c(cn1)SCC(=O)N2Cc1c(F)cccc1Cl
Return: > 10 µM

Enquiry: Data request, read-out EC50, for O=C(NCc1c(F)cc(F)cc1F)c1cnc2c(c1)N(Cc1cc(F)cc(F)c1)C(=O)CS2
Return: < 1 µM

Enquiry: Data request, read-out EC50, for O=C(NCc1ncco1)c1ccc2c(c1)N(Cc1ccccc1)C(=O)CS2
Return: > 10 µM

Enquiry: Data request, read-out EC50, for O=C(NCc1cc2ccccc2o1)c1ccc2c(c1)N(Cc1c(F)cccc1Cl)C(=O)CS2
Return: < 1 µM

Enquiry: Data request, read-out EC50, for O=C(NCc1c(F)cc(F)cc1F)c1ccc2c(c1)N(Cc1c(F)cccc1Cl)C(=O)CS2
Return: < 1 µM

Enquiry: Data request, read-out EC50, for O=C(NCc1ccco1)c1ccc2c(c1)N(Cc1cccc(OC(F)(F)F)c1)C(=O)CS2
Return: > 10 µM

Enquiry: Data request, read-out EC50, for O=C(NCc1ccc(F)cc1F)c1cnc2c(c1)N(Cc1cc(F)cc(F)c1)C(=O)CC2
Return: 1 to 10 µM

Enquiry: Data request, read-out EC50, for O=C(NCc1ccco1)c1ccc2c(c1)N(C(=O)c1ccccc1F)CCS2(=O)=O
Return: > 10 µM

Enquiry: Data request, read-out EC50, for CC1(CO)Sc2ncc(C(=O)NCc3c(F)cc(F)cc3F)cc2N(Cc2cc(F)cc(F)c2)C1=O (stereo not shown)
Return: > 10 µM

Enquiry: Data request, read-out EC50, for O=C(NCc1ccco1)c1ccc2c(n1)N(Cc1c(F)cccc1Cl)C(=O)CS2
Return: 1 to 10 µM

Enquiry: Data request, read-out EC50, for C[C@@H]1Oc2ncc(C(=O)NCc3c(F)cc(F)cc3F)cc2N(Cc2cc(F)cc(F)c2)C1=O
Return: 1 to 10 µM

Enquiry: Data request, read-out EC50, for N#CCN(Cc1ccccc1)C(=O)c1ccc2c(c1)N(Cc1ccccc1)C(=O)CS2
Return: > 10 µM
